Tested on: Respiratory Syncytial Virus (RSV) long strain
Assay: microbe, parasite or virus in culture
Format: cell-based
Settings: human respiratory syncytial virus, HEp-2, 120 h, read-out: 50% effective concentration (EC50), HEp-2 cells infected with RSV long strain, 5 days, CCK-8 readout; Tables A and B list compounds by EC50 band
Experimental: CPE reduction assays are performed as described by Sidwell and Huffman et al., Appl. Microbiol. (1971) 22(5):797-801 with slight modifications. […] Place on ice until ready to use. […] After 5 days incubation, observe the CPE of cells in all wells. […] After 3-4 hour incubation, the absorbance of each well is measured with a spectrophotometric plate reader at 450 nm wavelength, using a 630 nm filter as background according to manufacturer's instruction.
QUANTITY MEASURED: EC50

COCC(C)(NC(C)=O)c1cc(-c2ccc(F)c(Cl)c2)nc(C(O)(CNC(=O)c2ccc(OC3CC3)c(OC)c2)C(F)(F)F)c1 (stereo not shown): < 1000 nM
COc1ccc(C(O)(CNC(=O)c2ccc3c(c2)ncn3C)C(F)(F)F)nc1-c1ccc(F)c(Cl)c1 (stereo not shown): 1000 to 50000 nM
COc1cc(C(=O)NCC(O)(c2cc3c(c(-c4ccc(F)c(Cl)c4)n2)OCC3(C)C)C2CC2)cc2cccnc12 (stereo not shown): < 1000 nM

Task: So what's the measured EC50 for this one? "COc1cc(C(=O)NCC(=O)c2cc3c(c(-c4ccc(F)c(Cl)c4)n2)OCC=C3)ccc1OCCF"
Result: 1000 to 50000 nM

----------
Quick reference for EC50 among some compounds
tested on: Respiratory Syncytial Virus (RSV) long strain; assay: microbe, parasite or virus in culture; format: cell-based; conditions: human respiratory syncytial virus, HEp-2, 120 h, read-out: 50% effective concentration (EC50), HEp-2 cells infected with RSV long strain, 5 days, CCK-8 readout; Tables A and B list compounds by EC50 band

Record excerpt, results attached:
COc1cc(C(=O)NCC(O)(CO)c2cc3c(c(-c4ccc(F)c(Cl)c4)n2)OCC3(C)C)cc2cccnc12 (stereo not shown): < 1000 nM
COc1cc(C(=O)NCC(O)(c2cc(C(C)(C)N)cc(-c3ccc(F)c(Cl)c3)n2)C(F)(F)F)ccc1OCCO (stereo not shown): < 1000 nM
COc1cc(C(=O)NCC(C)(O)c2cc3c(c(-c4ccc(F)c(Cl)c4)n2)OCC3(C)O)ccc1OC1CC1 (stereo not shown): < 1000 nM

Then this compound:
Task: Checklist item: EC50 tested on Respiratory Syncytial Virus (RSV) long strain, entry COc1cc(C(=O)NCC(O)(c2ccc(OC)c(-c3ccc(F)c(Cl)c3)n2)C2CNC2)ccc1OC1CC1 (stereo not shown) , value?
Result: 1000 to 50000 nM

----------
CC50 at 5 days listing for selected compounds.
assay: Cytotoxicity Determination (CCK-8, without addition of virus); assay type: cell-based; details: human, 50% cytotoxicity concentration (CC50)

COc1cc(C(=O)NCC(O)(c2ccc(OC)c(-c3ccc(F)c(Cl)c3)n2)C(C)C)ccc1OCCF (stereo not shown) [Compound 125]: 10 to 100 µM
COc1cc(C(=O)NCC(O)(c2ccc(OC)c(-c3ccc(F)c(Cl)c3)n2)C(F)(F)F)ccc1OCC(C)(F)F (stereo not shown) [Compound 234]: > 100 µM
COc1cc(C(=O)NCC(C)(O)c2ncc(OC)c(-c3ccc(F)c(Cl)c3)n2)ccc1OCCO (stereo not shown) [Compound 109]: > 100 µM

Next:
Task: Quick one: CC50 at 5 days for CC(C)(N)c1cc(-c2ccc(F)c(Cl)c2)nc(C(O)(CNC(=O)c2cscn2)C(F)(F)F)c1 (stereo not shown) [Compound 277] ?
Result: 10 to 100 µM

Provenance of the data: patent US11021444B2
